System: HEK-293T
test.details: Multiplex assay against HEK293T
Format: toxicity, cell-based
measurement.setup: human, 48 h, 1 µM, compound concentration 1 uM, replicate 2
Non-standard residues stand in square brackets, D forms with d. Residues, ends and D or L forms follow the SMILES beside them.
outcome.measure: Population Normal (%)
Dear colleague, please return just the value in %, with no unit written.

# annotated cases, reported Population Normal (%) shown
compound | experimental.system | outcome.measure | measurement.units | test.result
O=C(O)CCC/C=C\CC1C(O)CC(O)C1/C=C/C(O)COc1cccc(Cl)c1 (stereo not drawn) | HEK-293T | Population Normal (%) | % | 94
Nc1nc(CC(=O)Nc2ccc(CCNC[C@H](O)c3ccccc3)cc2)cs1 | HEK-293T | Population Normal (%) | % | 99
O=c1nc2[nH]c3ccccc3nc-2c(=O)[nH]1 | HEK-293T | Population Normal (%) | % | 95
Cc1cc(-c2ccc3c(c2)CC[C@H]3N2CC3(CCN(C(=O)Cc4cn5cc(C)sc5n4)CC3)C2)ncn1 | HEK-293T | Population Normal (%) | % | 96
CCCCC[C@H](O)/C=C/[C@H]1[C@H](O)CC(=O)[C@@H]1CCCCCCC(=O)O | HEK-293T | Population Normal (%) | % | 96
CC(C)C[C@@H]1NC(=O)[C@@H](C(C)C)NC(=O)[C@@H]2CCCN2C(=O)[C@@H](CC(=O)O)NC(=O)[C@@H](Cc2c[nH]c3ccccc23)NC1=O [BQ-123] (cyclo(L[dW][dD]P[dV])) | HEK-293T | Population Normal (%) | % | 94

Inquiry: Name the recorded Population Normal (%) for `COc1ccc2[nH]c(I)c(CCNC(C)=O)c2c1` .
Reply text: 94

Inquiry: Name the recorded Population Normal (%) for `CC(C)(O)C(=O)N1CCN(c2ccc(C(F)(F)F)c(C3=C(c4c[nH]c5ccccc45)C(=O)NC3=O)c2)CC1` .
Reply text: 94

###

Tested on: HEK-293T
test.details: Multiplex assay against HEK293T
Format: toxicity, cell-based
measurement.setup: human, 48 h, 10 µM, compound concentration 10 uM, replicate 2
outcome.measure: Population Mitotic Cells (%)
Dear colleague, please return just the value in %, with no unit written.

compound | measurement.units | Population Mitotic Cells (%)
CN(C)C/C=C/C(=O)Nc1ccc(C(=O)N2CCCC(Nc3ncc(Cl)c(-c4c[nH]c5ccccc45)n3)C2)cc1 (configuration not stated) | % | 20
COc1cc2nc(N3CCN(C(=O)COc4c(OC)cccc4C(C)C)CC3)nc(N)c2cc1OC.Cl.Cl | % | 69
COCCCN1CCC(NC(=O)c2cc(Cl)c(N)c3c2OCC3)CC1 [PRUCALOPRIDE] | % | 64
CCn1c(-c2nc3cc(C(=O)N4CCCC(N)C4)ccc3n2C)cc2ccccc21.Cl (configuration not stated) | % | 47
C=CCN1C[C@H](C(=O)N(CCCN(C)C)C(=O)NCC)C[C@@H]2c3cccc4[nH]cc(c34)C[C@H]21 | % | 56

Inquiry: Name the recorded Population Mitotic Cells (%) for `Nc1nc(-c2ccco2)c2cnn(Cc3ccccc3F)c2n1` .
Reply text: 71

Inquiry: Name the recorded Population Mitotic Cells (%) for `COc1ccc2c(c1OCc1ccccc1)C[C@@H](C(=O)O)N(C(=O)C(c1ccccc1)c1ccccc1)C2` .
Reply text: 60

Inquiry: Name the recorded Population Mitotic Cells (%) for `CN1CCN(c2ccc(Nc3c4ccccc4nc4ccccc34)cc2)CC1.Cl.Cl.O` .
Reply text: 33

Inquiry: Name the recorded Population Mitotic Cells (%) for CCC(=O)OCC(=O)[C@@]1(OC(=O)CC)[C@@H](C)C[C@H]2[C@@H]3CCC4=CC(=O)C=C[C@]4(C)[C@@]3(Cl)[C@@H](O)C[C@@]21C [BECLOMETHASONE DIPROPIONATE] .
Reply text: 34

Inquiry: Name the recorded Population Mitotic Cells (%) for `Cc1cc(-c2ccc3c(c2)CC[C@H]3N2CC3(CCN(C(=O)Cc4cn5cc(C)sc5n4)CC3)C2)ncn1` .
Reply text: 53

Inquiry: Name the recorded Population Mitotic Cells (%) for COc1cc2nc(N3CCN(C(=O)c4ccco4)CC3)nc(N)c2cc1OC.Cl [PRAZOSIN HYDROCHLORIDE] .
Reply text: 76

###

Catalogue of molecules with associated Population Normal (%)
Test system: U2OS
test.details: Multiplex assay against U2OS
Assay type: toxicity, cell-based
measurement.setup: human, 12 h, 10 µM, compound concentration 10 uM, replicate 1
Field: value (include unit after the number)

# annotated cases, reported Population Normal (%) shown
structure.smiles.string | Population Normal (%)
Cc1sc2c(c1C)C(c1ccc(Cl)cc1)=N[C@H](CC(=O)OC(C)(C)C)c1nnc(C)n1-2 | 97%
O=c1nc2[nH]c3ccccc3nc-2c(=O)[nH]1 | 99%
COc1ccc2c(c1OCc1ccccc1)C[C@@H](C(=O)O)N(C(=O)C(c1ccccc1)c1ccccc1)C2 | 98%
Nc1nc(-c2ccco2)c2cnn(Cc3ccccc3F)c2n1 | 94%
COc1cc(Nc2ncc3c(n2)-c2ccc(Cl)cc2C(c2c(F)cccc2OC)=NC3)ccc1C(=O)O | 96%

Inquiry: Name the recorded Population Normal (%) for `O=c1ccc2ccc(OCCCCN3CCN(c4cccc5sccc45)CC3)cc2[nH]1` .
Reply text: 93%

Inquiry: Name the recorded Population Normal (%) for `Cc1cc(-c2ccc3c(c2)CC[C@H]3N2CC3(CCN(C(=O)Cc4cn5cc(C)sc5n4)CC3)C2)ncn1` .
Reply text: 97%

Inquiry: Name the recorded Population Normal (%) for `OCCCNc1cc(-c2ccnc(Nc3cccc(Cl)c3)n2)ccn1` .
Reply text: 95%

###

Test system: Fibroblast
test.details: Multiplex assay against human fibroblast
Format: toxicity, cell-based
measurement.setup: 12 h, 10 µM, compound concentration 10 uM, replicate 1
Non-standard residues stand in square brackets, D forms with d. Residues, ends and D or L forms follow the SMILES beside them.
outcome.measure: Population Pyknosed Nuclei (%)
Dear colleague, please return just the value in %, with no unit written.

# annotated cases, reported Population Pyknosed Nuclei (%) shown
compound | measurement.units | Population Pyknosed Nuclei (%)
Cc1cc(O)c(-c2ccc([C@@H](C)CN(C)C)cc2)c2c1[nH]c(=O)c1sccc12 | % | 16
Cc1cc(-c2ccc3c(c2)CC[C@H]3N2CC3(CCN(C(=O)Cc4cn5cc(C)sc5n4)CC3)C2)ncn1 | % | 18
OCCCNc1cc(-c2ccnc(Nc3cccc(Cl)c3)n2)ccn1 | % | 17
O=C(NCCNCC(O)COc1ccc(O)cc1)N1CCOCC1.O=C(NCCNCC(O)COc1ccc(O)cc1)N1CCOCC1.O=C(O)/C=C/C(=O)O (stereo unspecified) [XAMOTEROL FUMARATE] | % | 14
CCC(=O)OCC(=O)[C@@]1(OC(=O)CC)[C@@H](C)C[C@H]2[C@@H]3CCC4=CC(=O)C=C[C@]4(C)[C@@]3(Cl)[C@@H](O)C[C@@]21C [BECLOMETHASONE DIPROPIONATE] | % | 20

Inquiry: Name the recorded Population Pyknosed Nuclei (%) for `COc1cc(OC2CCN(C(C)=O)CC2)ccc1C(=O)N1CCC(N2C(=O)OCc3ccccc32)CC1` .
Reply text: 16

Inquiry: Name the recorded Population Pyknosed Nuclei (%) for `COc1cc2nc(N3CCN(C(=O)COc4c(OC)cccc4C(C)C)CC3)nc(N)c2cc1OC.Cl.Cl` .
Reply text: 38

Inquiry: Name the recorded Population Pyknosed Nuclei (%) for Cc1ccc(OCC(O)C(C)NC(C)C)c2c1CCC2.Cl (stereo unspecified) .
Reply text: 12

Inquiry: Name the recorded Population Pyknosed Nuclei (%) for `COc1ccc2[nH]c(I)c(CCNC(C)=O)c2c1` .
Reply text: 21

Inquiry: Name the recorded Population Pyknosed Nuclei (%) for CC(C)C[C@@H]1NC(=O)[C@@H](C(C)C)NC(=O)[C@@H]2CCCN2C(=O)[C@@H](CC(=O)O)NC(=O)[C@@H](Cc2c[nH]c3ccccc23)NC1=O [BQ-123] (cyclo(L[dW][dD]P[dV])) .
Reply text: 18

Inquiry: Name the recorded Population Pyknosed Nuclei (%) for CN1CCN2c3ccccc3Cc3ccccc3C2C1.Cl (stereo unspecified) [MIANSERIN HYDROCHLORIDE] .
Reply text: 15

Inquiry: Name the recorded Population Pyknosed Nuclei (%) for COc1cc2nc(N3CCN(C(=O)c4ccco4)CC3)nc(N)c2cc1OC.Cl [PRAZOSIN HYDROCHLORIDE] .
Reply text: 12

Inquiry: Name the recorded Population Pyknosed Nuclei (%) for `CC(F)(F)CN1CCOc2c(nn(-c3ccccc3Cl)c2-c2ccc(Cl)cc2)C1=O` .
Reply text: 17

Inquiry: Name the recorded Population Pyknosed Nuclei (%) for `C=CCN1C[C@H](C(=O)N(CCCN(C)C)C(=O)NCC)C[C@@H]2c3cccc4[nH]cc(c34)C[C@H]21` .
Reply text: 10

Inquiry: Name the recorded Population Pyknosed Nuclei (%) for COCCCN1CCC(NC(=O)c2cc(Cl)c(N)c3c2OCC3)CC1 [PRUCALOPRIDE] .
Reply text: 20

Inquiry: Name the recorded Population Pyknosed Nuclei (%) for `C[C@H](NC(=O)CNC(=O)c1cccc(Cl)c1)c1ccccc1` .
Reply text: 26
